# maps each entry to its log10 EC50
- System: IRF (Interferon Regulatory Factor) pathway
- method: Effect on IRF (Interferon Regulatory Factor) pathway, Quanti-luc reporter cells
- Format: cell-based
- assay.conditions: activation of the IRF pathway, luminescence, about 24 hours incubation
Counter-ions that a name gives are not always drawn.
observed.property: log10 EC50 (log10 of the value in µM)

compound | subject.of.test | observed
NC(=O)c1cc(-c2ncc(-c3cn[nH]c3)c3onc(N)c23)c(F)cc1N [Example 4(5), hydrochloride] | IRF (Interferon Regulatory Factor) pathway | -1.10
CCC(=O)c1cc(-c2ncc(-c3cn[nH]c3)c3onc(N)c23)c(F)cc1N [Example 4(7), hydrochloride] | IRF (Interferon Regulatory Factor) pathway | -1.70
CCNC(=O)c1cc(-c2ncc(-c3cn[nH]c3)c3onc(N)c23)c(F)cc1N [Example 4(8), hydrochloride] | IRF (Interferon Regulatory Factor) pathway | -1.70
CC(=O)c1cc(-c2ncc(-c3cn[nH]c3)c3onc(N)c23)c(F)cc1N | IRF (Interferon Regulatory Factor) pathway | -1.40
CCOC(=O)c1cc(-c2ncc(-c3cn[nH]c3)c3onc(N)c23)c(F)cc1N [Example 4(6), hydrochloride] | IRF (Interferon Regulatory Factor) pathway | -1.40
CNC(=O)c1cc(-c2ncc(-c3cn[nH]c3)c3onc(N)c23)ccc1N [Example 4(15), hydrochloride] | IRF (Interferon Regulatory Factor) pathway | -1.00
CSc1cc(-c2ncc(-c3cn[nH]c3)c3onc(N)c23)c(Cl)cc1N [Example 4(16), hydrochloride] | IRF (Interferon Regulatory Factor) pathway | 0.00
CSc1cc(-c2ncc(-c3cn[nH]c3)c3onc(N)c23)c(F)cc1N [Example 4, hydrochloride] | IRF (Interferon Regulatory Factor) pathway | -1.05
